Experiment summary: Cytotoxicity against human HPLF cells after 48 hrs
Format: cell-based
Measured attribute: CC50 at 48 h (µM)
Numeric answer only, unit µM assumed.

Cc1ccc(/C=C/C(=O)c2c(C)[n+]([O-])c3ccccc3[n+]2[O-])cc1 ... 23

input: Bench note: what CC50 at 48 h did Cc1c(C(=O)/C=C/c2ccc(Cl)c(Cl)c2)[n+]([O-])c2ccccc2[n+]1[O-] show?
output: 5.7

input: Bench note: what CC50 at 48 h did Cc1c(C(=O)/C=C/c2ccc(Cl)cc2)[n+]([O-])c2ccccc2[n+]1[O-] show?
output: 12
